# growth inhibition per record follows
assay: NCI Yeast Anticancer Drug Screen. Data for the bub3 strain (AID 167); conditions: S. cerevisiae bub3 mutant strain, at 33.0 µM, active compounds read high
This is part of a sample that, as a whole, favours compounds with a hit. Of some 79,000 tested, about 15% had one in any assay.
# output: bare number, implied unit %

Worked cases, growth inhibition given:
# compound, readingUnit, growth inhibition
rows = [
    ("CC(=O)/C=C/c1cc([N+](=O)[O-])ccc1O", "%", 95),
    ("CCCCCCCN1C(=O)c2ccccc2C1=O", "%", 36),
    ("Cc1cc(O)c(C(C)C)cc1SC#N", "%", 34),
    ("O=C1Nc2ccc(Br)cc2C1=Nc1ccc(Cl)cc1", "%", 29),
]

Prompt: Entry c1ccc2c(c1)ccn2CCc1c[nH]c2ccccc12 has what growth inhibition?
Response: 79

Prompt: Entry CCN(CC)C(=S)N/N=C(\C)c1ccccc1O has what growth inhibition?
Response: 97

Prompt: Entry BrC1C2CCC3OC3C12 (centres undefined) has what growth inhibition?
Response: 99

Prompt: Entry Cc1ccc(C)c(C(=N)c2ccccc2Cc2ccccc2)c1 has what growth inhibition?
Response: 96

Prompt: Entry CCOC(=O)/C(=C/c1cccc(Cl)c1)N(CC)CC has what growth inhibition?
Response: 55

Prompt: Entry CC1(C)CC(=O)C(/C=N/c2nc(-c3ccc(Br)cc3)cs2)=C(O)C1 has what growth inhibition?
Response: 96

Prompt: Entry O=C(NC(N1CCN(c2cc3c(cc2F)c(=O)c(C(=O)O)cn3C2CC2)CC1)(C(F)(F)F)C(F)(F)F)c1ccccc1 has what growth inhibition?
Response: 2

Prompt: Entry Fc1ccc(Nc2ccc3ccccc3c2)cc1 has what growth inhibition?
Response: -9

Prompt: Entry O=C1C=C(NCCc2cc(Br)c(O)c(Br)c2)C(=O)c2ncccc21 has what growth inhibition?
Response: 68

Prompt: Entry CC(=O)/C(=C\c1ccc(Cl)c(Cl)c1)C(=O)C(C)CN(C)C (centres undefined) has what growth inhibition?
Response: 53

Prompt: Entry Cc1ccccc1NC(=O)c1c(C)oc2c1C(=O)c1ccccc1C2=O has what growth inhibition?
Response: 25

Prompt: Entry CC(C)(Br)C(=O)/C=C/c1ccccc1 has what growth inhibition?
Response: -2

###

test: NCI Yeast Anticancer Drug Screen. Data for the mlh1 strain (AID 171);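 also: 0% = growth of vehicle-treated control cultures of the same strain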; conditions: S. cerevisiae mlh1 strain growth inhibition; at 3.7 µM; active compounds read high
The panel holds about 79,000 compounds, 15% with a hit somewhere; the sample as a whole holds those more often. The source made the active and inactive calls. Cut-off read from the data, not from the text of the source: active = growth inhibition above about 70%; inactive = the rest.
metricName: growth inhibition

# compound, growth inhibition
records = [
    ("CCC1(O)C(=O)OCc2c1cc1n(c2=O)Cc2cc3c(N)cccc3nc2-1 (stereo unspecified)", "-22% (inactive)"),
    ("COc1cc(OC)c(CSCC(NC(=O)OCC2c3ccccc3-c3ccccc32)C(=O)O)c(OC)c1 (stereo unspecified)", "9% (inactive)"),
    ("CC(C)(CN1CCCCC1)C(=O)/C=C/c1c(Cl)cccc1Cl", "14% (inactive)"),
    ("COc1ccc2nc(CCc3ccccc3)ccc2c1", "-10% (inactive)"),
    ("CC1=CN2C(c3ccccc3)=NON(c3ccc(C)cn3)C2C=C1 (stereo unspecified)", "-2% (inactive)"),
]

Proceeding to the next compound to report its growth inhibition.
Prompt: Entry COc1cc(NCCCCNCC(C)(C)C)c2ncccc2c1 has what growth inhibition?
Response: -1% (inactive)

###

# growth inhibition per record follows
experiment: NCI Yeast Anticancer Drug Screen. Data for the wt2 strain (AID 169);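 also: 0% = growth of vehicle-treated yeast cultures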; conditions: S. cerevisiae wt2 strain growth inhibition; at 33.0 µM; active compounds read high
The panel holds about 79,000 compounds, 15% with a hit somewhere; the sample as a whole holds those more often. Residues, ends and D or L forms follow the SMILES beside them. *: point of attachment. Fmoc = O=C(OCC1c2ccccc2-c2ccccc21)*; Boc = CC(C)(C)OC(=O)*
# output: bare number, implied unit %

Prompt: Entry CNC(=O)OCc1c2ccncc2c(C)c2c1[nH]c1ccccc12 has what growth inhibition?
Response: -1

Prompt: Entry Fc1ccc(Nc2ccc3ccccc3c2)cc1 has what growth inhibition?
Response: 44

Prompt: Entry S=C1N(c2ccc(Cl)cc2)C2=C(N=Nc3ccccc3)C(=Nc3ccccc3S2)N1c1ccccn1 has what growth inhibition?
Response: 23

Prompt: Entry CN(N=O)C(=O)Nc1ccc(C(=O)O)cc1 has what growth inhibition?
Response: 0

Prompt: Entry O=Cc1ccccc1C=O has what growth inhibition?
Response: -35

Prompt: Entry CCC[CH2][Ge]([CH2]CCC)([CH2]CCC)[O]C(=O)C(O)c1ccccc1 (configuration not stated) has what growth inhibition?
Response: 81

Prompt: Entry CC(C)(C)OC(=O)NCCCCC(NC(=O)C(Cc1c[nH]c2ccccc12)NC(=O)OCC1c2ccccc2-c2ccccc21)C(=O)O (configuration not stated) (Fmoc-Trp-Lys(Boc)-OH; configuration not given here) has what growth inhibition?
Response: 1

Prompt: Entry CCN(CC)C(=S)N/N=C(\C)c1ccccc1O has what growth inhibition?
Response: 97

Prompt: Entry COC(=O)c1ccccc1N=NNc1cccc(SC)c1 has what growth inhibition?
Response: 93

Prompt: Entry O=C(Nc1cccs1)c1ccccc1 has what growth inhibition?
Response: -2

###

# growth inhibition per record follows
assay: NCI Yeast Anticancer Drug Screen. Data for the mlh1 strain (AID 171);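 also: 0% = growth of vehicle-treated control cultures of the same strain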; conditions: S. cerevisiae mlh1 strain growth inhibition; at 11.0 µM; active compounds read high
This is part of a sample that, as a whole, favours compounds with a hit. Of some 79,000 tested, about 15% had one in any assay.
# output: bare number, implied unit %

# molecule, readingUnit, growth inhibition
data = [
    ("CC(C)C(c1ccccc1)c1ccccc1", "%", 0),
    ("CC(C)CCC[C@@H](C)[C@H]1CC[C@H]2[C@@H]3CC[C@H]4C[C@H](N)CC[C@]4(C)[C@H]3CC[C@]12C", "%", -4),
]

Prompt: Entry CNC(=O)OCc1c2ccncc2c(C)c2c1[nH]c1ccccc12 has what growth inhibition?
Response: 26

Prompt: Entry Cc1cccc(C)c1NC(=O)C(C#N)C1=C(Cl)C(=O)c2ccccc2C1=O (stereo unspecified) has what growth inhibition?
Response: 98

Prompt: Entry CC1CN(/N=C\c2ccc([N+](=O)[O-])o2)C(=O)O1 (stereo unspecified) has what growth inhibition?
Response: -1

Prompt: Entry O=c1[nH]c2c([N+](=O)[O-])cccc2c2ccccc12 has what growth inhibition?
Response: 0

###

# growth inhibition per record follows
assay: NCI Yeast Anticancer Drug Screen. Data for the rad50EPP+ strain (AID 151);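 also: 0% = growth of vehicle-treated control cultures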; conditions: S. cerevisiae rad50 mutant strain, at 11.0 µM, active compounds read high
The panel holds about 79,000 compounds, 15% with a hit somewhere; the sample as a whole holds those more often. The source made the active and inactive calls. No stated cut-off is given here; in the data, active means growth inhibition above about 70%; inactive means the rest.

# compound, growth inhibition
data = [
    ("NC(=S)N1N=C2c3ccccc3CC[C@@H]2[C@@H]1c1ccccc1", "-49% (inactive)"),
    ("CCC(C)COC(=O)Nc1cccc(Cl)c1 (configuration not stated)", "39% (inactive)"),
    ("N#CC1OB(O)c2ccccc21 (configuration not stated)", "4% (inactive)"),
    ("CCOC(=O)Nc1ccc(C)c(NC(=O)OCC)c1", "19% (inactive)"),
    ("Cc1cccc(/C=N/NC(=S)NC2CCCCC2)n1", "-13% (inactive)"),
]

Prompt: Entry COC(=O)C(=O)c1c(-c2ccc(Cl)c(Cl)c2)[nH]c2[nH]n(-c3ccccc3)c(=O)c2c1=O has what growth inhibition?
Response: 24% (inactive)

Prompt: Entry CCCCCCC1OCC(O)C(OCCCC)O1 (configuration not stated) has what growth inhibition?
Response: 2% (inactive)

Prompt: Entry C1=CCN([B-](c2ccccc2)[C+]2CCCCC2)C=C1 has what growth inhibition?
Response: -3% (inactive)

Prompt: Entry C=CC(C)(C)N1C(=O)C(C(C)=O)=C(O)C1Cc1c[nH]c2ccccc12 (configuration not stated) has what growth inhibition?
Response: -4% (inactive)

###

assay: NCI Yeast Anticancer Drug Screen. Data for the rad50EPP+ strain (AID 151);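 also: 0% = growth of vehicle-treated control cultures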; conditions: S. cerevisiae rad50 mutant strain, at 1.2 µM, active compounds read high
About 79,000 compounds went through this panel and 15% of them were active in at least one assay; those are over-represented in the sample as a whole.
# growth inhibition per record follows
# output: bare number, implied unit %

Prompt: Entry C/C(=N\Sc1ccccc1)c1ccccc1O has what growth inhibition?
Response: 3

Prompt: Entry OC(c1ccccc1)(c1ccccc1)c1nccc2ccccc12 has what growth inhibition?
Response: 14

Prompt: Entry O=C(NCCNCCNC(=O)c1cc(-c2ccccc2)nc2ccccc12)c1cc(-c2ccccc2)nc2ccccc12 has what growth inhibition?
Response: -1

Prompt: Entry CC1=COC2=C(C)C(=O)C(=O)c3c(C)ccc1c32 has what growth inhibition?
Response: 2

Prompt: Entry CCOc1ccc(N)c(S)c1 has what growth inhibition?
Response: 0

Prompt: Entry CN(C)CC(CN(C)C)C(=O)/C=C/c1ccc(Cl)cc1Cl has what growth inhibition?
Response: -2
